- target: human S1P receptor EDG-1 (S1P1) (Homo sapiens, UniProt P21453)
- Sequence (P21453 whole entry): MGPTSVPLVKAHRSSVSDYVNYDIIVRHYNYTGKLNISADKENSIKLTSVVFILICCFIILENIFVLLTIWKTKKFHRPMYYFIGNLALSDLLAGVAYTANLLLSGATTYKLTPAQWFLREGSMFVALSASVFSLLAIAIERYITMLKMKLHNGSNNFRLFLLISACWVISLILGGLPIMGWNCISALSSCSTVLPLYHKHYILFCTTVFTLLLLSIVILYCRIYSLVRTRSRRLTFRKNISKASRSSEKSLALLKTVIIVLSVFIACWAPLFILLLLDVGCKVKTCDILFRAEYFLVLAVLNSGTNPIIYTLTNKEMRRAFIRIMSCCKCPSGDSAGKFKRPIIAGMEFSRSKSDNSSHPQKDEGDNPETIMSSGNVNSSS
- protocol summary: S1P receptor profiling, GTP[γ-35S] binding SPA
- assay conditions: membranes of transfected CHO or RH7777 cells
Entries and their pEC50 values follow.
# reply with the number alone; pEC50 is -log10 of concentration in mol/L

// query pEC50 lookup needed for CCCCCCCOc1ccc(CC[C@@](C)(N)[C@H](C)OP(=O)(O)O)cc1 , thanks.
// result 10.15

// query Query (molecule): CCCCCOc1ccc2cc(CC[C@@](C)(N)[C@@H](C)OP(=O)(O)O)ccc2c1 ; field requested: pEC50
// result 9.89

// query Item CCCCCCCOc1ccc(CC[C@@](C)(N)[C@@H](C)OP(=O)(O)O)cc1 has what recorded pEC50?
// result 9.29
